B1: DCAF4 (parent)
chain: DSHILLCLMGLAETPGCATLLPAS

Variants of: B1
Assay: protein stability index of a GFP-peptide fusion (GPS, HEK-293T) (PSI 1-6); higher = more stable;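 further: lentivirally expressed fusions sorted by FACS into six bins by GFP to DsRed ratio, PSI derived from sequencing read proportions per bin multiplied by bin number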
Details: c terminus: a fixed tail appended
Values of protein stability index greater than or equal to 2 map to fulfilled; values below map to not fulfilled.

seqtext=DSHILLCLMGLAETPQCATLLPAS discretelabel=fulfilled
seqtext=DSHFLLCLMGLAETPGCATLLPAS discretelabel=fulfilled
seqtext=DSHILLPLMGLAETPGCATLLPAS discretelabel=fulfilled
seqtext=DSHILLCLMGLAENPGCATLLPAS discretelabel=fulfilled

Continue with the next variant.
// query Would you say DSHILLCLMGTAETPGCATLLPAS shows protein stability index at minimum 2?
// result fulfilled
